Where do these numbers come from? They come from ChEMBL document CHEMBL1142732.

log10 of IC50: recorded values
- Target Entity: Prothrombin (Homo sapiens)
- Protocol Text: Inhibitory concentration against human alpha thrombin
Experimental Endpoint: log10 of IC50 (log10 of the value in nM)

>  <Compound>
CN[C@H](Cc1ccccc1)C(=O)N1CCC[C@H]1C(=O)N[C@@H](CCCCN=C(N)N)C(=O)c1nc2ccccc2s1

>  <log10 of IC50>
3.92

$$$$
>  <Compound>
CN[C@H](Cc1ccccc1)C(=O)N1CCC[C@H]1C(=O)N[C@@H](CCCN=C(N)N)C(O)c1nc2ccccc2s1 (stereo in doubt; form 1)

>  <log10 of IC50>
4.68

$$$$
>  <Compound>
CN[C@H](Cc1ccccc1)C(=O)N1CCC[C@H]1C(=O)NC(CCCN=C(N)N)C(=O)c1cc2ccccc2s1 (stereo not given in full)

>  <log10 of IC50>
4.11

$$$$
>  <Compound>
N=C(N)NCCCC(NC(=O)[C@@H]1CCCN1C(=O)CC(c1ccccc1)c1ccccc1)C(=O)c1nc2ccccc2s1 (stereo not given in full)

>  <log10 of IC50>
1.04

$$$$
>  <Compound>
CC(=O)N[C@H](Cc1ccccc1)C(=O)N1CCC[C@H]1C(=O)NC(CCCN=C(N)N)C(=O)c1nc2ccccc2s1 (stereo not given in full)

>  <log10 of IC50>
2.63

$$$$
>  <Compound>
CNC(C(=O)N1CCC[C@H]1C(=O)NC(CCCN=C(N)N)C(=O)c1nc2ccccc2s1)(c1ccccc1)c1ccccc1 (stereo not given in full)

>  <log10 of IC50>
1.18

$$$$
>  <Compound>
CN[C@H](Cc1ccccc1)C(=O)N1CCC[C@H]1C(=O)NC(CCCN=C(N)N)C(=O)c1nc2ccccc2c(=O)[nH]1 (stereo not given in full)

>  <log10 of IC50>
2.03

$$$$
>  <Compound>
CS(=O)(=O)CC[C@H](NS(=O)(=O)Cc1ccccc1)C(=O)N1CCC[C@H]1C(=O)N[C@@H](CCCNC(=N)N)C(=O)c1nc2ccccc2s1

>  <log10 of IC50>
1.98

$$$$
>  <Compound>
Cc1cccc(C(C)(C)CN(CC(=O)N[C@@H](CCCN=C(N)N)C(=O)c2nc3ccccc3s2)C(=O)CCc2ccccc2)c1

>  <log10 of IC50>
3.60

$$$$
>  <Compound>
CN[C@H](Cc1ccccc1)C(=O)N1CCC[C@H]1C(=O)N[C@H](CCCN=C(N)N)C(=O)c1nc2ccccc2s1

>  <log10 of IC50>
1.90

$$$$
>  <Compound>
N=C(N)NCCC[C@H](NC(=O)[C@@H]1CCCN1C(=O)[C@H](CO)NS(=O)(=O)c1cccc2ccccc12)C(=O)c1nc2ccccc2s1

>  <log10 of IC50>
2.04

$$$$
>  <Compound>
CCOC(=O)c1csc(C(=O)C(CCCN=C(N)N)NC(=O)[C@@H]2CCCN2C(=O)[C@@H](Cc2ccccc2)NC)n1 (stereo not given in full)

>  <log10 of IC50>
2.08

$$$$
>  <Compound>
CN[C@H](Cc1ccccc1)C(=O)N1CCC[C@H]1C(=O)NC(C(=O)c1nc2ccccc2s1)C1CCC(N)CC1 (stereo not given in full)

>  <log10 of IC50>
3.28

$$$$
>  <Compound>
N=C(N)NCCCC(NC(=O)[C@@H]1CCCN1C(=O)[C@@H](CC1CCCCC1)NCC(=O)O)C(=O)c1nc2ccccc2s1 (stereo not given in full)

>  <log10 of IC50>
1.46

$$$$
>  <Compound>
CN[C@@H](C(=O)N1CCC[C@H]1C(=O)NC(CCCN=C(N)N)C(=O)c1nc2ccccc2s1)C(c1ccccc1)c1ccccc1 (stereo not given in full)

>  <log10 of IC50>
0.65

$$$$
>  <Compound>
N=C(N)NCCCC(NC(=O)[C@@H]1CCCN1C(=O)N[C@H](C=O)Cc1ccccc1)C(=O)c1nc2ccccc2s1 (stereo not given in full)

>  <log10 of IC50>
4.23

$$$$
>  <Compound>
CN[C@H](Cc1ccccc1)C(=O)N1CCC[C@H]1C(=O)NC(CCCN=C(N)N)C(=O)c1nc(C(=O)O)cs1 (stereo not given in full)

>  <log10 of IC50>
2.05

$$$$
>  <Compound>
CN[C@H](Cc1ccccc1)C(=O)N1CCC[C@H]1C(=O)NC(CCCN=C(N)N)C(=O)c1nc(C(=O)NCCc2ccccc2)cs1 (stereo not given in full)

>  <log10 of IC50>
2.92

$$$$
>  <Compound>
N=C(N)NCCC[C@H](NC(=O)CN1CCCC[C@H](NS(=O)(=O)Cc2ccccc2)C1=O)C(=O)c1nc2ccccc2s1

>  <log10 of IC50>
2.43

$$$$
>  <Compound>
CN[C@H](Cc1ccccc1)C(=O)N1CCC[C@H]1C(=O)N[C@@H](C[C@@H]1CCCN(C(=N)N)C1)C(=O)c1nc2ccccc2s1

>  <log10 of IC50>
1.71

$$$$
>  <Compound>
CN[C@H](Cc1ccccc1)C(=O)N1CCC[C@H]1C(=O)N[C@@H](CCCNC(=N)N)C(=O)c1ccccn1

>  <log10 of IC50>
2.97

$$$$
>  <Compound>
CN[C@H](Cc1ccc(F)cc1)C(=O)N1CCC[C@H]1C(=O)NC(CCCN=C(N)N)C(=O)c1nc2ccccc2s1 (stereo not given in full)

>  <log10 of IC50>
1.18

$$$$
>  <Compound>
CCS(=O)(=O)N[C@H](Cc1ccccc1)C(=O)N1CCC[C@H]1C(=O)NC(CCCN=C(N)N)C(=O)c1nc2ccccc2s1 (stereo not given in full)

>  <log10 of IC50>
2.70

$$$$
>  <Compound>
N=C(N)NCCCC(NC(=O)[C@@H]1CCCN1C(=O)C(O)C1c2ccccc2-c2ccccc21)C(=O)c1nc2ccccc2s1 (stereo not given in full)

>  <log10 of IC50>
1.98

$$$$
>  <Compound>
CCS(=O)(=O)N[C@H](Cc1ccccc1)C(=O)N1CCC[C@H]1C(=O)NC(C(=O)c1nc2ccccc2s1)C1CCC(N)CC1 (stereo not given in full)

>  <log10 of IC50>
2.66

$$$$
>  <Compound>
CN[C@@H](C(=O)N1CCC[C@H]1C(=O)NC(CCCN=C(N)N)C(=O)c1nc2ccccc2s1)c1ccccc1 (stereo not given in full)

>  <log10 of IC50>
1.53

$$$$
>  <Compound>
CC(=O)N1CCC[C@H]1C(=O)NC(CCCN=C(N)N)C(=O)c1nc2ccccc2s1 (stereo not given in full)

>  <log10 of IC50>
4.15

$$$$

----------
- Target Entity: Serine protease 1 (Bos taurus, UniProt P00760)
- Sequence (P00760 whole entry): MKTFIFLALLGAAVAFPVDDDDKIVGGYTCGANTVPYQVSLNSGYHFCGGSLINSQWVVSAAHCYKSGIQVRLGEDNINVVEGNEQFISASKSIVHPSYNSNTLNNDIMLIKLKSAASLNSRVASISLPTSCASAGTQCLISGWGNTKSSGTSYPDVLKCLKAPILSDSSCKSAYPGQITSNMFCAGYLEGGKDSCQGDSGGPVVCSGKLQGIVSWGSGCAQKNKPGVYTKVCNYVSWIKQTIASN
- Protocol Text: Binding affinity against bovine trypsin
Criterion: Ki strictly under 20 nM. Met: True. Not met: False.

>  <Compound>
CN[C@H](Cc1ccccc1)C(=O)N1CCC[C@H]1C(=O)N[C@@H](CCCOC)C(=O)c1nc2ccccc2s1

>  <Assigned Category>
False

$$$$
>  <Compound>
CNCCCC[C@@H](NC(=O)[C@@H]1CCCN1C(=O)[C@@H](Cc1ccccc1)NC)C(=O)c1nc2ccccc2s1

>  <Assigned Category>
False

$$$$
>  <Compound>
CCOC(=O)c1csc(C(=O)C(CCCN=C(N)N)NC(=O)[C@@H]2CCCN2C(=O)[C@@H](Cc2ccccc2)NC)n1 (stereo not given in full)

>  <Assigned Category>
True

$$$$
>  <Compound>
CN[C@H](Cc1ccccc1)C(=O)N1CCC[C@H]1C(=O)N[C@H](C[C@H]1CCCN(C(=N)N)C1)C(=O)c1nc2ccccc2s1

>  <Assigned Category>
False

$$$$
>  <Compound>
CN[C@H](Cc1ccccc1)C(=O)N1CCC[C@H]1C(=O)N[C@@H](C[C@@H]1CCCN(C(=N)N)C1)C(=O)c1nc2ccccc2s1

>  <Assigned Category>
True

$$$$
>  <Compound>
CNC1(C(=O)N2CCC[C@H]2C(=O)NC(CCCN=C(N)N)C(=O)c2nc3ccccc3s2)CCCCC1 (stereo not given in full)

>  <Assigned Category>
True

$$$$
>  <Compound>
CN[C@H](Cc1ccccc1)C(=O)N1CCC[C@H]1C(=O)N[C@@H](CCCCN)C(=O)c1nc2ccccc2s1

>  <Assigned Category>
True

$$$$
>  <Compound>
CCS(=O)(=O)N[C@H](Cc1ccccc1)C(=O)N1CCC[C@H]1C(=O)NC(CCCN=C(N)N)C(=O)c1nc2ccccc2s1 (stereo not given in full)

>  <Assigned Category>
False

$$$$
>  <Compound>
CN[C@H](Cc1ccccc1)C(=O)N1CCC[C@H]1C(=O)N[C@@H](C(=O)c1nc2ccccc2s1)C1CCC(CN)CC1 (stereo not given in full)

>  <Assigned Category>
False

$$$$
>  <Compound>
CN[C@H](Cc1ccccc1)C(=O)N1CCC[C@H]1C(=O)NC(CCCN=C(N)N)C(=O)c1nc2ccccc2c(=O)[nH]1 (stereo not given in full)

>  <Assigned Category>
True

$$$$
>  <Compound>
CN[C@H](Cc1ccccc1)C(=O)N1CCC[C@H]1C(=O)NC(CCCN=C(N)N)C(=O)c1nc2ccc(C(=O)O)cc2s1 (stereo not given in full)

>  <Assigned Category>
True

$$$$
>  <Compound>
CN[C@H](Cc1ccccc1)C(=O)N1CCC[C@H]1C(=O)N[C@@](C)(CCCN=C(N)N)C(=O)c1nc2ccccc2s1

>  <Assigned Category>
False

$$$$
>  <Compound>
N=C(N)NCCCC(NC(=O)[C@@H]1CCCN1C(=O)CC(c1ccccc1)c1ccccc1)C(=O)c1nc2ccccc2s1 (stereo not given in full)

>  <Assigned Category>
False

$$$$
>  <Compound>
CN[C@H](Cc1ccccc1)C(=O)N1CCC[C@H]1C(=O)NC(CCCN=C(N)N)C(=O)c1nc2ccccc2o1 (stereo not given in full)

>  <Assigned Category>
True

$$$$
>  <Compound>
NC(N)=NCCCC(NC=O)C(=O)c1nc2ccccc2s1 (stereo not given)

>  <Assigned Category>
False

$$$$
